The following compounds were reported with pIC50 values on Insulin-like growth factor 1 receptor (Homo sapiens) in different studies.
Numbers only, as −log10 of the molar value.

For orientation, consider the following solved cases.
COc1ccc(NC(=O)/C=C/CN(C)C)cc1Nc1ncc(C#N)c(Nc2ccc3ccccc3c2)n1: 6.71
COc1cccc(C2CC(N3CCCC3=O)c3cc(F)cc4c3N2CC4)c1 (centres unmarked): 4.54
C=CC(=O)Nc1cc(CN(C)C)cc(Nc2ncc(Cl)c(Nc3ccc4ccccc4c3)n2)c1: 7.07
CCc1cc(Nc2ncc(Br)c(Nc3ccc(-c4cncc(OC)n4)cc3P(C)(C)=O)n2)c(OC)cc1N1CCC(N2CCN(C)CC2)CC1: 6.40
COc1cc(C2CC(N3CCCC3=O)c3cccc4c3N2CC4)ccc1OC(=O)OC(C)(C)C (centres unmarked): 6.03

Attention now shifts to the item below.
For the compound shown here, C=CC(=O)Nc1cc(Nc2ncc(Cl)c(Nc3ccc4ccccc4c3)n2)c(OC)cc1N1CCC(N(C)C)C1 (centres unmarked) , give the reported pIC50.
7.25
